System: laminin-332 production in HaCaT cells
Test: Laminin-332 concentration in HaCaT culture supernatant after addition of various amino acids, Example 2
Assay type: cell-based, human
Details: HaCaT cells, amino acid 1000 nM, 24 hours; negative control 1.5-1.8 ng/mL
Protocol: After completing the cell culture, culture medium was collected and centrifuged at 3000 rpm for five minutes. Concentration of laminin-332 in the supernatant was measured by ELISA (Amano, S., et al., J. Immunol. Methods, 224:161 (1999)). […] Cell culture was carried out in the same manner as the Example 1 by using HaCaT cells. […] The production amount of laminin-332 was measured in the same manner as the Example 1. […]
Returns 1 (yes) if the recorded concentration of laminin-332 in the culture supernatant is greater than or equal to 2 ng/mL, and 0 (no) otherwise.

Problem: Quick check, concentration of laminin-332 in the culture supernatant >= 2 ng/mL? O=C(O)[C@H]1C[C@@H](O)CN1 (relative stereo) [D-hydroxyproline, 4-cis-D-hydroxyproline]
Solution: 1 (yes)

Problem: Quick check, concentration of laminin-332 in the culture supernatant >= 2 ng/mL? NC(=O)C[C@@H](N)C(=O)O [D-asparagine]
Solution: 0 (no)

Problem: Quick check, concentration of laminin-332 in the culture supernatant >= 2 ng/mL? C[C@@H](N)C(=O)O [D-alanine]
Solution: 1 (yes)

Problem: Quick check, concentration of laminin-332 in the culture supernatant >= 2 ng/mL? O=C(O)[C@@H]1CCCN1 [L-proline]
Solution: 0 (no)

Problem: Quick check, concentration of laminin-332 in the culture supernatant >= 2 ng/mL? N[C@@H](CO)C(=O)O [L-serine]
Solution: 0 (no)

Problem: Quick check, concentration of laminin-332 in the culture supernatant >= 2 ng/mL? NC(=O)C[C@H](N)C(=O)O [L-asparagine]
Solution: 0 (no)

Problem: Quick check, concentration of laminin-332 in the culture supernatant >= 2 ng/mL? O=C(O)[C@H]1CCCN1 [D-proline]
Solution: 0 (no)

Problem: Quick check, concentration of laminin-332 in the culture supernatant >= 2 ng/mL? N[C@H](CO)C(=O)O [D-serine]
Solution: 0 (no)

Problem: Quick check, concentration of laminin-332 in the culture supernatant >= 2 ng/mL? N[C@H](CC(=O)O)C(=O)O [D-aspartic acid]
Solution: 0 (no)

Problem: Quick check, concentration of laminin-332 in the culture supernatant >= 2 ng/mL? O=C(O)[C@@H]1C[C@@H](O)CN1 [L-hydroxyproline]
Solution: 1 (yes)

Problem: Quick check, concentration of laminin-332 in the culture supernatant >= 2 ng/mL? C[C@H](N)C(=O)O [L-alanine]
Solution: 1 (yes)
